Molecular target: 5E5 (anti-MUC1) antibody
Assay: Antigen-antibody binding studies by surface plasmon resonance (SPR)
Design: species or system mouse
Conditions: SPR, 5E5 immobilised on CM5 chip, 20° C. and 7.5 pH
pKd: −log10 of the molar value.
Recorded pKd values for a group of substances are listed next.

Substance	pKd
GGGGPAPGST(GalNAc)APPA [Glycopeptide 21, reference compound]	6.27
GGGGPAPGST(GalNCOEt)APPA [Glycopeptide 24]	7.08
